The following compounds are listed with their measured Ducksalad plant response rating values.
Tested on: ducksalad (Heteranthera limosa)
testName: Test B flooded paddy test
Assay type: in vivo
experimentalParameters: Flood, 31 g ai/ha; scale 0 to 100 (0 no effect, 100 complete control)
Just the number, please, no unit attached.

{"smilesNotation": "CCn1c(-c2cccc(Cl)c2)ncc(C(=O)C2=C(O)CCCC2=O)c1=O", "targetOrSystem": "ducksalad (Heteranthera limosa)", "measuredQuantity": "Ducksalad plant response rating", "reportedValue": 80}
{"smilesNotation": "O=C1CCCC(O)=C1C(=O)c1cnc(-c2ccco2)n(-c2ccccc2)c1=O", "targetOrSystem": "ducksalad (Heteranthera limosa)", "measuredQuantity": "Ducksalad plant response rating", "reportedValue": 0}
{"smilesNotation": "O=C1CCCC(O)=C1C(=O)c1cnc(-c2cc(F)cc(F)c2)n(C2CCCCC2)c1=O", "targetOrSystem": "ducksalad (Heteranthera limosa)", "measuredQuantity": "Ducksalad plant response rating", "reportedValue": 85}

Now consider the entry below.
// Ducksalad plant response rating value for `O=C1CCCC(O)=C1C(=O)c1cnc(-c2ccccc2)n(C2CCSCC2)c1=O` : 0
